Experiment: Transfer of Pro-Hyp in blood after administration (LC-MS/MS)
Type: in vivo, C57 BL/6N mice
Details: female, C57 BL/6N, mouse, blood, ip; intraperitoneal, single administration 500 nmol/200 μL, mice without wound; read-out: time at which blood concentration of Pro-Hyp reached a peak (converted)
Experimental: To C57 BL/6N mice (8 to 10 weeks of age, female) (N=4, per group) in which no wound site is formed, a physiological saline solution (500 nmol/200 μL) of the dipeptide consisting of the amino acid sequence of Pro-Hyp (which may be hereinafter referred to as simply “Pro-Hyp”) is administered intraperitoneally by injection (single administration) or a physiological saline solution (2500 nmol/200 μL) of Pro-Hyp was orally administered using a probe (single administration). […]
Non-standard residues stand in square brackets, D forms with d. Residues, ends and D or L forms follow the SMILES beside them. Hyp = O=C(O)[C@@H]1C[C@@H](O)CN1
Property Measured: Tmax (min)
Your answer is read as min, so omit the unit and give the number.

Entry O=C(O)[C@@H]1C[C@@H](O)CN1C(=O)[C@@H]1CCCN1 [Pro-Hyp] (H-Pro-[Hyp]-OH; N-terminus and C-terminus assumed) , Tmax reported as 15
